test system: A. baumannii JMI7; assay: In vitro antimicrobial activity, MIC by broth microdilution (CLSI); assay type: cell-based; settings: Acinetobacter baumannii, JMI7; PER-1, OXA-23, 51, ESBL and OXA-type carbapenemase producing strain; 5×10^5 cfu/mL; cation-adjusted Iso-Sensitest broth containing human Apo-transferrin; read-out: Minimum Inhibitory Concentration (MIC) A. baumannii JMI:7
experimental.readout: MIC (µg/mL)

1: C[C@@H]1S[C@@H]2[C@H](NC(=O)/C(=N\OC(C)(C)C(=O)[O-])c3csc(N)n3)C(=O)N2C(C(=O)[O-])=C1C[N+]12CCC(CC1)N(C(=O)c1c[nH]c3cc(O)c(O)cc3c1=O)CC2.[Na+]
2: C[C@@H]1S[C@@H]2[C@H](NC(=O)/C(=N\OC(C)(C)C(=O)[O-])c3csc(N)n3)C(=O)N2C(C(=O)[O-])=C1C[N+]1(CCN2C(=O)c3cc(O)c(O)cc3C2=O)CCCC1.[Na+]
In: Sorting ascending by MIC, which comes first: 1 or 2 ? # answer = label of selected item
Out: 1

Value source: patent US10174053B2
